Source of measurements: patent US20260209362A1

system_under_test: T1, biotinylated recombinant mouse IL-12Rβ2 (mouse, UniProt P97378 24-637, random biotinylated)
T1 construct: Recombinant protein produced in-house, biotinylated; also called mIL-12RB2; mouse IL-12RB2
T1 sequence: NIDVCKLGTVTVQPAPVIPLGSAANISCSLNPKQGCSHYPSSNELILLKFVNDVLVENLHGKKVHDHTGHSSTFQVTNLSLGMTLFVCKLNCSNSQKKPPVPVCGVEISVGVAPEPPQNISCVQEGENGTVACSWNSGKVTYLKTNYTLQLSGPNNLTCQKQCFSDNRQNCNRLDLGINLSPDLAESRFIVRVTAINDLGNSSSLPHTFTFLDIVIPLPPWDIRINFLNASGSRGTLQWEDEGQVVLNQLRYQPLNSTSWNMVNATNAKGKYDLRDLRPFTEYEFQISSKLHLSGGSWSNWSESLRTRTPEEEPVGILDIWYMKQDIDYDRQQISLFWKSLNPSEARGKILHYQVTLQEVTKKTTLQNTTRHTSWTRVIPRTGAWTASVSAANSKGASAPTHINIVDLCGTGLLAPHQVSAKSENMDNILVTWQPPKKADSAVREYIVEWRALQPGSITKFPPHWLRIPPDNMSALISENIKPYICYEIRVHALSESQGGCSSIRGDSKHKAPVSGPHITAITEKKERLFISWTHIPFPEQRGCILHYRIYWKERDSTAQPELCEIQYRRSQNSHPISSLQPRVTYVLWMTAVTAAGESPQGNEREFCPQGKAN
measurement_notes: ELISA, periplasmic extract on biotinylated mIL-12Rβ2, signal over control wells
Attribute: ELISA binding mIL-12RB2/control
Give just the number in ratio; leave the unit off.

{"columns": ["binder", "value_kind", "value"],
 "data": [
  ["anti-IL-12Rβ2 VHH clone 20471 (VHH, not shown: small tags and cut ends, tested as periplasmic extract; also called 2CAM11) VHH: QVQLQESGGGLVQAGGSLRLSCAASGRTFVTYAMGWFRQAPGKEREFVAAISWSGGRLYYADSAKGRFTISRDNAKNTVYLQMNSLKPEDTAVYYCAADPQDYTGRDYQRRRYDYWGQGTQVTVSS", "ELISA binding mIL-12RB2/control", 5.71]
]}

With those in mind, consider the next binder.
Lookup: # ELISA binding mIL-12RB2/control lookup, item anti-IL-12Rβ2 VHH clone 20496 (VHH, not shown: small tags and cut ends, tested as periplasmic extract; also called 2CAM71) VHH: QVQLQESGGGLVQAGGSLRLSCAASGRTLSNSVMGWFRQAPGKEREFVAALMWSAGSEFYTDSVKGRFSISGDGAKNTVYLQMNSLKAEDTAVYYCAAKNPPHRWSDIGKSPHYEYWGQGTQVTVSS
Found: 19.5
